B1: Far upstream element-binding protein 3, residues 75 to 150; numbered along this chain, Q96I24 (parent)
chain: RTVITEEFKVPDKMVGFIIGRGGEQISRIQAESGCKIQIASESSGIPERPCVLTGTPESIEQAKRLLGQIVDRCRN

variants of: B1; experiment: abundance fitness (aPCA) (normalised: wild type 0, dead -1); higher = more abundant; growth selection in yeast, the domain comes from the species named; settings: Homo sapiens
recordedEndpoint: abundance fitness
# answer = number (no unit)

These solved cases illustrate the format of a correct answer.
- mutantId: "S59R"
  assayResult: -0.141
- mutantId: "A31N"
  assayResult: -0.044
- mutantId: "T54D"
  assayResult: -0.187
- mutantId: "T56Y"
  assayResult: -0.049

Noted for D72E : its abundance fitness reads 0.003

Noted for E58Q : its abundance fitness reads -0.066

Noted for G22P : its abundance fitness reads -0.276

Noted for I18E : its abundance fitness reads -0.182

Noted for I4Q : its abundance fitness reads -0.087

Noted for I26N : its abundance fitness reads -0.538

Noted for V3P : its abundance fitness reads -0.117

Noted for A40V : its abundance fitness reads -0.094

Noted for G22D : its abundance fitness reads 0.016

Noted for G22C : its abundance fitness reads -0.057

Noted for D12A : its abundance fitness reads -0.024

Noted for K64M : its abundance fitness reads -0.336

Noted for L67E : its abundance fitness reads -0.757

Noted for I29G : its abundance fitness reads -0.677

Noted for M14C : its abundance fitness reads -0.063

Noted for R49W : its abundance fitness reads -0.271

Noted for E48P : its abundance fitness reads -0.242

Noted for G16I : its abundance fitness reads -0.194
